# system: NAD-dependent protein deacetylase sirtuin-3, mitochondrial (Homo sapiens) (UniProt Q9NTG7)
# Sequence (Q9NTG7 whole entry, the tested form may be a part): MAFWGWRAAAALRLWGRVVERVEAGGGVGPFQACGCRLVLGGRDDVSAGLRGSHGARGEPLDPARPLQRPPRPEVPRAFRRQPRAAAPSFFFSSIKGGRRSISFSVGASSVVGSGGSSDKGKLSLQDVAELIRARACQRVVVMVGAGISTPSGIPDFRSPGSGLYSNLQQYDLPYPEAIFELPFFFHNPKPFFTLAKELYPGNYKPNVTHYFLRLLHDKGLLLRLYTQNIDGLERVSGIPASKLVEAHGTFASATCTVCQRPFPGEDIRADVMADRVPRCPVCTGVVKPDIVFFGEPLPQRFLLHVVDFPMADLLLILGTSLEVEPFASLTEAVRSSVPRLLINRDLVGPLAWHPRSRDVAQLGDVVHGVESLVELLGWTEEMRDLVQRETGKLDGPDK
# assayProtocol: Substrate activity at human N-terminal His-tagged SIRT3 (122 to 391 residues) expressed in Escherichia coli at 5 uM measured after 2 hrs in presence of NAD+ and trypsin by fluorescence assay
*1 amine or outer side, *2 acyl side, *3 side chain or, on linkers, in order; H or OH if unused. Where a SMILES comes first, the peptide text is derived from it. The star is where a group is joined. AMC = Cc1cc(=O)oc2cc(N*)ccc12; Suc = O=C(CCC(=O)[*:2])[*:1]; Decanoyl = CCCCCCCCCC(=O)*
If the reported Activity equals or exceeds 0.5 RFU, assign t. If not, assign f.

Below, 3 molecules whose answers are already recorded.
molecule: CCCCCCCCCC(=O)NCCCC[C@H](NC(=O)[C@H](CCCNC(=N)N)NC(=O)[C@H](C)NC(=O)[C@@H](NC(C)=O)[C@@H](C)O)C(=O)Nc1ccc2c(C)cc(=O)oc2c1 (Ac-TARK(Decanoyl)-{AMC})
labelValue: f
--
molecule: CCCCCCCCCC(=O)NCCCC[C@H](NC(=O)[C@H](CCC(N)=O)NC(=O)[C@@H](NC(=O)[C@H](CCCCN)NC(C)=O)C(C)C)C(=O)Nc1ccc2c(C)cc(=O)oc2c1 (Ac-KVQK(Decanoyl)-{AMC})
labelValue: t
--
molecule: CC(=O)NCCCC[C@H](NC(=O)[C@H](CC(C)C)NC(=O)[C@H](CCCCN)NC(=O)[C@H](Cc1ccc(O)cc1)NC(C)=O)C(=O)Nc1ccc2c(C)cc(=O)oc2c1 (Ac-YKLK(Ac)-{AMC})
labelValue: t

Req: Does the molecule CC[C@H](C)[C@H](NC(=O)[C@H](CC(C)C)NC(=O)[C@H](CCCNC(=N)N)NC(C)=O)C(=O)N[C@@H](CCCCNC(C)=O)C(=O)Nc1ccc2c(C)cc(=O)oc2c1 (Ac-RLIK(Ac)-{AMC}) have recorded Activity that is 0.5 RFU or more?
Resp: t

Req: Does the molecule CC(=O)NCCCC[C@H](NC(=O)[C@H](CCCCN)NC(=O)[C@H](Cc1cnc[nH]1)NC(=O)[C@H](CCCNC(=N)N)NC(C)=O)C(=O)Nc1ccc2c(C)cc(=O)oc2c1 (Ac-RHKK(Ac)-{AMC}) have recorded Activity that is 0.5 RFU or more?
Resp: f

Req: Does the molecule CCCCCCCCCC(=O)NCCCC[C@H](NC(=O)[C@H](CCCCN)NC(=O)[C@@H]1CCCN1C(=O)[C@H](CC(N)=O)NC(C)=O)C(=O)Nc1ccc2c(C)cc(=O)oc2c1 (Ac-NPKK(Decanoyl)-{AMC}) have recorded Activity that is 0.5 RFU or more?
Resp: t

Req: Does the molecule CCCCCCCCCC(=O)NCCCC[C@H](NC(=O)[C@@H](NC(=O)[C@H](CO)NC(=O)[C@H](CO)NC(C)=O)[C@@H](C)CC)C(=O)Nc1ccc2c(C)cc(=O)oc2c1 (Ac-SSIK(Decanoyl)-{AMC}) have recorded Activity that is 0.5 RFU or more?
Resp: t

Req: Does the molecule CC(=O)N[C@@H](Cc1cnc[nH]1)C(=O)N[C@@H](Cc1ccccc1)C(=O)N[C@@H](CO)C(=O)N[C@@H](CCCCNC(=O)CCC(=O)O)C(=O)Nc1ccc2c(C)cc(=O)oc2c1 (Ac-HFSK(Suc)-{AMC}) have recorded Activity that is 0.5 RFU or more?
Resp: t
